biological target: human PCSK9 (Homo sapiens, UniProt Q8NBP7); assay: PCSK9 ligand binding assay (TR-FRET): interference with binding of human PCSK9 to human LDLR; settings: Human PCSK9 Alexa Fluor 647 / Human LDLR extracellular domain-Europium Kryptate
Sequence (Q8NBP7 153-692): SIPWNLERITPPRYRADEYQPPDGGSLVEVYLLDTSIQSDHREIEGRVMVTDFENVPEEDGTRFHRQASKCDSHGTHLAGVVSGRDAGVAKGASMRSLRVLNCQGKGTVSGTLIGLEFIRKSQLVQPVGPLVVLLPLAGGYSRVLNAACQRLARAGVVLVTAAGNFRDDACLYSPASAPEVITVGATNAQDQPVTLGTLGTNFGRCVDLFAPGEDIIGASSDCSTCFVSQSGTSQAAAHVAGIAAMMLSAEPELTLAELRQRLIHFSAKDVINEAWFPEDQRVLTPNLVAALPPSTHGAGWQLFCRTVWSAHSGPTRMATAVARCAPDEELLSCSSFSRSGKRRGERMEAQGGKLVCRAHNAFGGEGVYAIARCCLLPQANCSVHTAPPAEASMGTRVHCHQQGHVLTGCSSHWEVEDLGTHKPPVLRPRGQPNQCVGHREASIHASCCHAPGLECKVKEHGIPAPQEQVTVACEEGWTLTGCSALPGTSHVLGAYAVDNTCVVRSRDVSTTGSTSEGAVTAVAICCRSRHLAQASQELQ
Sequence (Q8NBP7 31-152 partner limits assumed): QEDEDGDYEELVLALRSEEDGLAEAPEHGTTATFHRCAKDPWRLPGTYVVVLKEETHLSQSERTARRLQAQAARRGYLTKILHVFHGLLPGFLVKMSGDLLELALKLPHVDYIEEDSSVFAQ
Endpoint Name: IC50 (nM)

Known IC50 results, listed for orientation:
{"Compound": "CC(C)[C@@H]1NC(=O)N(Cc2ccc(Cl)cc2Oc2ccc(-c3cnc(CN(C)C)n3C)cc2)[C@@H](C)C(=O)N[C@@H](CO)C(=O)N[C@@]2(Cc3ccc(Cl)cc3)CCCN(C2)C1=O.Cl [Compound 67]", "System Name": "human PCSK9 (Homo sapiens, UniProt Q8NBP7)", "Measurement Units": "nM", "IC50": 0.334}
{"Compound": "CC[C@@H]1CC(=O)N(Cc2ccc(Cl)cc2Oc2ccc(-c3cnc(CN4CCCC4)n3C)cc2)[C@@H](C)C(=O)N[C@@H](CO)C(=O)N(C)[C@H](Cc2ccc(Cl)cc2)CN(C)C1=O.Cl [Compound 128]", "System Name": "human PCSK9 (Homo sapiens, UniProt Q8NBP7)", "Measurement Units": "nM", "IC50": 250}

[a] C[C@H]1C(=O)N[C@@H](CO)C(=O)N(C)[C@H](Cc2ccc(Cl)cc2)CN(C)C(=O)[C@H](Cc2ccccc2)CC(=O)N1Cc1ccc(Cl)cc1Oc1ccc(-c2cnc(CN3CCCC3)n2C)cc1.Cl [Compound 108]
[b] COC[C@@H]1NC(=O)[C@H](C)N(Cc2ccc(Cl)cc2Oc2cc(F)c(-c3cnc(CN4CCCC4)n3C)c(F)c2)C(=O)C[C@@H](Cc2ccccc2)C(=O)N(C)C[C@@H](Cc2ccc(Cl)cc2)N(C)C1=O.Cl [Compound 117]
[c] COC[C@@H]1NC(=O)[C@H](C)N(Cc2c(F)cc(Cl)cc2Oc2ccc(-c3cnc(CN(C)C)n3C)cc2)C(=O)C[C@@H](Cc2cccc(C)[n+]2[O-])C(=O)N2CCC[C@@](Cc3ccc(Cl)cc3)(C2)N(C)C1=O [Compound 168]
[d] C[C@H](c1ncc(-c2ccc(Oc3cc(Cl)ccc3CN3C(=O)C[C@@H]([C@@H]4CCc5ccccc54)C(=O)N4CCC[C@@](Cc5ccc(Cl)cc5)(C4)NC(=O)[C@H](CO)NC(=O)[C@@H]3C)cc2)n1C)N(C)C.Cl [Compound 70]
[e] COC[C@@H]1NC(=O)[C@H](C)N(Cc2ccc(Cl)cc2Oc2ccc(-c3cnc(CN(C)C)n3C)cc2)C(=O)C[C@@H](Cc2cccnc2)C(=O)N2CCC[C@@](Cc3ccc(Cl)cc3)(C2)NC1=O.Cl [Compound 23]
Order the records by IC50, with each subsequent value no larger than the one before. Please list the labels according to the requested order. b, a, d, c, e
(b: 35.1 nM, a: 9.32 nM, d: 1.48 nM, c: 0.81 nM, e: 0.463 nM)

[1] C[C@H]1C(=O)N[C@@H](CO)C(=O)N[C@@]2(Cc3ccc(Cl)cc3)CCCN(C2)C(=O)[C@H](CC2CC2)CC(=O)N1Cc1c(F)cc(Cl)cc1Oc1ccc(-c2cnc(CN(C)C)n2C)cc1 [Compound 145]
[2] CCOCCOCCOCc1ncc(-c2ccc(Oc3cc(Cl)ccc3CN3C(=O)N[C@@H](Cc4ccccc4)C(=O)N4CCC[C@@](Cc5ccc(Cl)cc5)(C4)NC(=O)[C@H](CO)NC(=O)[C@@H]3C)cc2)n1C.Cl [Compound 104]
Pick one: 1 or 2 . Which one has the lower reported IC50? # reply format: chosen label 1

====

molecular target: human PCSK9 (Homo sapiens, UniProt Q8NBP7); assay: PCSK9 ligand binding assay (TR-FRET): interference with binding of human PCSK9 to human LDLR; details: Human PCSK9 Alexa Fluor 647 / Human LDLR extracellular domain-Europium Kryptate
pIC50: −log10 of the molar value.
Endpoint Name: pIC50

{"Compound": "C[C@H]1C(=O)N[C@@H](CO)C(=O)N[C@@]2(Cc3ccc(Cl)cc3)CCCN(C2)C(=O)[C@H](CC2CCC2)CC(=O)N1Cc1c(F)cc(Cl)cc1Oc1ccc(-c2cnc(CN(C)C)n2C)cc1 [Compound 155]", "System Name": "human PCSK9 (Homo sapiens, UniProt Q8NBP7)", "pIC50": 9.02}

[a] C[C@H](O)[C@@H]1NC(=O)[C@H](C)N(Cc2ccc(Cl)cc2Oc2ccc(-c3cnc(CN(C)C)n3C)cc2)C(=O)C[C@@H](Cc2ccccc2)C(=O)N2CCC[C@@](Cc3ccc(Cl)cc3)(C2)NC1=O [Compound 109]
[b] C[C@H]1C(=O)N[C@@H](CO)C(=O)N(C)[C@@]2(Cc3ccc(Cl)cc3)CCCN(C2)C(=O)[C@H](CC(F)(F)F)CC(=O)N1Cc1c(F)cc(Cl)cc1Oc1ccc(-c2cnc(CN(C)C)n2C)cc1 [Compound 82]
[c] COC[C@@H]1NC(=O)[C@H](C)N(Cc2ncc(Cl)cc2Oc2ccc(-c3cnc(CN(C)C)n3C)cc2)C(=O)C[C@@H](CC(F)(F)F)C(=O)N2CCC[C@@](Cc3ccc(Cl)cc3)(C2)NC1=O [Compound 29]
[d] C[C@H](NCc1ccc(Cl)cc1Oc1ccc(-c2cnc(CN(C)C)n2C)cc1)C(=O)N[C@H]1COC(=O)C[C@@H](Cc2ccccc2)C(=O)N(C)[C@@]2(Cc3ccc(Cl)cc3)CCCN(C2)C1=O [Compound 130]
Put the entries in order of pIC50, starting with the largest number. Labels, ranked as asked. b, c, a, d
(b: 9.43, c: 9.01, a: 7.95, d: 6.06)

====

molecular target: human PCSK9 (Homo sapiens); assay: PCSK9 ligand binding assay (TR-FRET): interference with binding of human PCSK9 to human LDLR; conditions: Human PCSK9 Alexa Fluor 647 / Human LDLR extracellular domain-Europium Kryptate
Endpoint Name: IC50 (nM)

{"Compound": "COC[C@@H]1NC(=O)[C@H](CCF)N(Cc2ccc(Cl)cc2Oc2ccc(-c3cnc(CN(C)C)n3C)cc2)C(=O)C[C@@H](Cc2ccccc2)C(=O)N2CCC[C@@](Cc3ccc(Cl)cc3)(C2)NC1=O.Cl [Compound 105, hydrochloride]", "IC50 (nM)": 6.12}

[A] COC[C@@H]1NC(=O)[C@H](C)N(Cc2ncc(Cl)cc2Oc2ccc(-c3cnc(CN(C)C)n3C)cc2)C(=O)C[C@@H](Cc2ccccc2)C(=O)N2CCC[C@@](Cc3ccc(Cl)cc3)(C2)NC1=O
[B] C[C@H](NCc1ccc(Cl)cc1Oc1ccc(-c2cnc(CN(C)C)n2C)cc1)C(=O)N[C@H]1COC(=O)C[C@@H](Cc2ccccc2)C(=O)N2CCC[C@@](Cc3ccc(Cl)cc3)(C2)N(C)C1=O
Return label of the item with the larger IC50. Candidates: A , B . Write down the label attached to your selection. B

[A] C[C@H]1C(=O)N[C@@H](CO)C(=O)N[C@@]2(Cc3ccc(Cl)cc3)CCCN(C2)C(=O)[C@H](CC(F)(F)F)CC(=O)N1Cc1ccc(Cl)cc1Oc1ccc(-c2cnc(CN(C)C)n2C)cc1
[B] C[C@H]1C(=O)N[C@@H](CO)C(=O)N[C@@]2(Cc3ccc(Cl)cc3)CCCN(C2)C(=O)CCC(=O)N1Cc1c(OCC(F)(F)F)cc(Cl)cc1Oc1ccc(-c2cnc(CN(C)C)n2C)cc1
Parameter metric = IC50. Return the lower-valued option from A and B . Write down the label of the entry you select. A

====

target: human PCSK9 (Homo sapiens, UniProt Q8NBP7); assay: PCSK9 ligand binding assay (TR-FRET): interference with binding of human PCSK9 to human LDLR; conditions: efficacy (Amax), 100% = 1 uM unlabeled human PCSK9, 0% = DMSO
Endpoint Name: Max % inhibition (%)

{"Smiles Entry": "C[C@H]1C(=O)N[C@@H](CO)C(=O)N[C@@]2(Cc3ccc(Cl)cc3)CCCN(C2)C(=O)[C@H](CC(F)(F)F)CC(=O)N1Cc1ccc(Cl)cc1Oc1ccc(-c2cnc(CN(C)C)n2C)cc1", "Endpoint Name": "Max % inhibition", "Measured Number": 112.4}
{"Smiles Entry": "CC(C)[C@@H]1NC(=O)N(Cc2ccc(Cl)cc2Oc2ccc(-c3cnc(CN(C)C)n3C)cc2)[C@@H](C)C(=O)N[C@@H](CO)C(=O)N[C@@]2(Cc3ccc(Cl)cc3)CCCN(C2)C1=O.Cl", "Endpoint Name": "Max % inhibition", "Measured Number": 104.2}
{"Smiles Entry": "COC[C@@H]1NC(=O)[C@H](C)N(Cc2ccc(Cl)cc2Oc2ccc(-c3cnc(CN(C)C)n3C)nc2)C(=O)C[C@@H](Cc2ccccn2)C(=O)N2CCC[C@@](Cc3ccc(Cl)cc3)(C2)N(C)C1=O", "Endpoint Name": "Max % inhibition", "Measured Number": 107.7}
{"Smiles Entry": "COC[C@@H]1NC(=O)[C@H](C)N(Cc2ccc(Cl)cc2Oc2ccc(-c3cnc(CN(C)C)n3C)nc2)C(=O)C[C@@H](CC(F)(F)F)C(=O)N2CCC[C@@](Cc3ccc(Cl)cc3)(C2)N(C)C1=O", "Endpoint Name": "Max % inhibition", "Measured Number": 112.8}
{"Smiles Entry": "COC[C@@H]1NC(=O)[C@H](C)N(Cc2c(F)cc(Cl)cc2Oc2ccc(-c3cnc(CN(C)C4CCC4)n3C)cc2)C(=O)C[C@@H](CC(F)(F)F)C(=O)N2CCC[C@@](Cc3ccc(Cl)cc3)(C2)NC1=O", "Endpoint Name": "Max % inhibition", "Measured Number": 113.8}
{"Smiles Entry": "C[C@H]1C(=O)N[C@@H](CO)C(=O)N[C@@]2(Cc3ccc(Cl)cc3)CCCN(C2)C(=O)[C@H]([C@@H]2CCc3ccccc32)CC(=O)N1Cc1c(F)cc(Cl)cc1Oc1ccc(-c2cnc(CN(C)C)n2C)cc1", "Endpoint Name": "Max % inhibition", "Measured Number": 102.2}
{"Smiles Entry": "COC[C@@H]1NC(=O)[C@H](C)N(Cc2c(F)cc(Cl)cc2Oc2ccc(-c3cnc(CN(C)C)n3C)nc2)C(=O)C[C@@H](C2CC(F)(F)C2)C(=O)N2CCC[C@@](Cc3ccc(Cl)cc3)(C2)N(C)C1=O", "Endpoint Name": "Max % inhibition", "Measured Number": 107.8}
{"Smiles Entry": "C[C@H]1C(=O)N[C@@H](CO)C(=O)N[C@@]2(Cc3ccc(Cl)cc3)CCCN(C2)C(=O)[C@H](CC(F)(F)F)CC(=O)N1Cc1c(F)cc(Cl)cc1Oc1ccc(-c2cnc(CNC3CCC3)n2C)cc1", "Endpoint Name": "Max % inhibition", "Measured Number": 101.9}
{"Smiles Entry": "Cc1c(CN(C)C)ncn1-c1ccc(Oc2cc(Cl)ccc2CN2C(=O)C[C@@H]([C@@H]3CCc4ccccc43)C(=O)N3CCC[C@@](Cc4ccc(Cl)cc4)(C3)NC(=O)[C@H](CO)NC(=O)[C@@H]2C)cc1", "Endpoint Name": "Max % inhibition", "Measured Number": 107.3}
